Test system: HCC-2998 colon
Assay: NCI-60 one-dose screen, 48 h (100 = growth as untreated, 0 = no growth, -100 = all killed)
Details: 10 µM unless noted
About 83,000 compounds went through this panel and 20% of them were active in at least one assay; those are over-represented in the sample as a whole.
property.label: growth (%)

N#Cc1nc(-c2ccccc2)oc1N1CCC(C2(C(F)(F)F)N=N2)CC1
107
Cc1csc(/N=C(N)/N=C(\N)c2cccc(Br)c2)n1
97
CC(C)NC(=O)c1cc(-c2ccc(NC(=O)Nc3ccc(F)cc3)cc2)nc2cccnc12
108
O=C(/C=C/c1cccc(F)c1)c1cccc(OCCCCOc2cccc(C(=O)/C=C/c3cccc(F)c3)c2)c1
114
CCCCCN1C(=O)/C(=c2\sc3n(c2=O)C2C(NN=3)N(CC)C(=O)N2CC)c2cccc(C)c21 (configuration not stated)
86
CCC(=C(c1ccc(OCCN2CCCCCC2)cc1)c1ccc(OCCN2CCCCCC2)cc1)c1ccc(Cl)cc1
-86
COc1cc(/C=C2/C(=O)Nc3ccc(Cl)cc32)ccc1OCc1ccc(Cl)cc1
107
COc1ccc2c(c1)C=CC1(O2)Oc2ccc(OC)cc2C=C1C (configuration not stated)
24.1
Cc1ccc2c(n1)C(=O)C(Cl)=C(Nc1ccccc1C(=O)OC(C)(C)C)C2=O
92.3
NC1C2CCC1CN(c1cnc(C(=O)Nc3cc(F)cc4cccnc34)cn1)C2 (configuration not stated)
79.3
CN1CCN(Cc2ccc(NC(=O)c3cncc(C#Cc4cnc5ccc(OCC(F)F)nn45)c3)cc2C(F)(F)F)CC1
-67
C#CCn1cc(/C=N/Nc2nc(-c3ccc(Br)cc3)cs2)c2ccccc21
116
Cc1ccc2c(n1)C(=O)C(Cl)=C(Nc1ccc(C(C)C)cc1)C2=O
3.71
Cn1cc(-c2nc(N)nnc2-c2c[nH]c3ccc(Br)cc23)c2cc(F)ccc21
122
COc1ccc(C(=NNS(=O)(=O)c2ccc(C)cc2)c2ccccc2)cc1OC
102
CCOC(=O)c1cccc(NC2=C(Cl)C(=O)c3nc(C)ccc3C2=O)c1
122
Cc1ccc(Nc2nc(SC(C)C)nc(-c3ccccc3)c2C#N)cc1
88.2
CCOC(=O)c1c(N)c(C#N)cn1Cc1ccc(Cl)cc1Cl
73
Cn1cc(-c2nn3cc(-c4ccncc4)nc3s2)c2cc(F)ccc21
91.4
NS(=O)(=O)c1ccc(CCn2c(-c3ccc(C(=O)O)cc3)nc(-c3ccccc3)c2-c2ccccc2)cc1
108
COC(=O)CCCNCCCn1ccc2cc(NCc3cccc(-c4ccccc4)c3C)ccc21
90.2
CN1CCN(Cc2ccc(NC(=O)c3cncc(C#Cc4cnc5ccc(OCCCS(C)(=O)=O)nn45)c3)cc2C(F)(F)F)CC1
-22
CC(=O)Nc1cc(N2CCOCC2)c2nc(NC(=O)c3[nH]c(C)c(Cl)c3Cl)sc2c1
109
O=S(=O)(NCCCNc1nccc(-c2[nH]c(-c3ccccc3)nc2-c2ccc(F)c(O)c2)n1)c1cccc2ccccc12
99
Clc1ccc2c(N/N=C/c3c[nH]c4ccccc34)ccnc2c1
-92.3
COc1ccc2c(c1)c(-c1nc(N)nnc1-c1c[nH]c3ccccc13)cn2C
82.9
NC1=NC2(CCCC2)N(c2ccc(S(=O)(=O)Nc3nccs3)cc2)C(N)=N1
109
Fc1cccc(Cl)c1/C=N/Nc1nc(N/N=C/c2c(F)cccc2Cl)nc(N2CCCCC2)n1
24.4
CN(C)S(=O)(=O)c1ccc(-c2nc(C(Cl)Cl)nc3cc(-c4ccc(F)cc4)nn23)cc1
8.78
O=C(CSc1nc2ccccc2c(=O)n1-c1ccc(Cl)cc1)N/N=C/c1ccc(Oc2ccc(Cl)cc2)cc1
20.3
Cc1ccc(-c2nc(SCC(=O)c3ccccc3)nc(Nc3ccc(S(N)(=O)=O)cc3)c2C#N)cc1
106
Cc1ccc2c(n1)C(=O)C(Cl)=C(Nc1ccc(C)c(C)c1)C2=O
57.6
CCCCCCNC(=O)Oc1ccc(/C(=C(/C)c2ccc(Cl)cc2)c2ccc(OCCN3CCCCCC3)cc2)cc1
90.7
Cc1ccc2c(n1)C(=O)C(Cl)=C(Nc1ccc(C(F)(F)F)cc1)C2=O
97.9
C#C[C@]1(O)CC[C@H]2[C@@H]3CC=C4c5sc(Nc6ccc(C)cn6)nc5CC[C@]4(C)[C@H]3CC[C@@]21C
19.2
C=C(C)[C@@H]1CC[C@]2(COCCCNCCCN)CC[C@]3(C)[C@H](CC[C@@H]4[C@@]5(C)CC[C@H](O)C(C)(C)[C@@H]5CC[C@]43C)[C@@H]12
-71.5
CN1CCN(c2ccc(Nc3nc(NCCNS(=O)(=O)c4ccc(Cl)cc4)c4sccc4n3)cc2)CC1
108
